target_or_test_system: CYP2D6 (Homo sapiens, UniProt P10635)
Sequence (P10635 whole entry): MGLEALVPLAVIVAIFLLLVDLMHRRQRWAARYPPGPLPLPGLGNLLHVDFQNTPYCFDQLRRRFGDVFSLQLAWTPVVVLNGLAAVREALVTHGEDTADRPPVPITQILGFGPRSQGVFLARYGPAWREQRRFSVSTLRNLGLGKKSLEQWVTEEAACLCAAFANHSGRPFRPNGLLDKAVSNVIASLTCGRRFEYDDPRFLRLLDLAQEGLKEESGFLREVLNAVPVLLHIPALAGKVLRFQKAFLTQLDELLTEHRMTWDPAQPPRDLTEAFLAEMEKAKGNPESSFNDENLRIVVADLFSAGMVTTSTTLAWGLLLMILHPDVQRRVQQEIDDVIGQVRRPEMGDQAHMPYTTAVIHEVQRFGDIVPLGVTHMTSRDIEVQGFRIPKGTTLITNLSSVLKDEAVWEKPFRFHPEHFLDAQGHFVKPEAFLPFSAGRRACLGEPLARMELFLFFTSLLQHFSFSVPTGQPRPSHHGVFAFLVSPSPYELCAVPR
measurement_notes: Inhibition of cytochrome P450 (P450-Glo) CYP2D6
experimental_setup: human recombinant enzyme, read-out: CYP450 Inhibition (IC50 microM) 2D6
quantity_name: IC50 (µM)

Cc1nc2ncnn2c2c1CCN2[C@@H](C)c1ccc(F)cc1 [Compound 7]
15
Cc1nc2ncnn2c2c1CCN2[C@@H](C)c1ccccc1 [Compound 5]
21

----------
target_or_test_system: CYP2C9 (Homo sapiens)
Construct: purchased Promega Corporation
Sequence (P11712 whole entry): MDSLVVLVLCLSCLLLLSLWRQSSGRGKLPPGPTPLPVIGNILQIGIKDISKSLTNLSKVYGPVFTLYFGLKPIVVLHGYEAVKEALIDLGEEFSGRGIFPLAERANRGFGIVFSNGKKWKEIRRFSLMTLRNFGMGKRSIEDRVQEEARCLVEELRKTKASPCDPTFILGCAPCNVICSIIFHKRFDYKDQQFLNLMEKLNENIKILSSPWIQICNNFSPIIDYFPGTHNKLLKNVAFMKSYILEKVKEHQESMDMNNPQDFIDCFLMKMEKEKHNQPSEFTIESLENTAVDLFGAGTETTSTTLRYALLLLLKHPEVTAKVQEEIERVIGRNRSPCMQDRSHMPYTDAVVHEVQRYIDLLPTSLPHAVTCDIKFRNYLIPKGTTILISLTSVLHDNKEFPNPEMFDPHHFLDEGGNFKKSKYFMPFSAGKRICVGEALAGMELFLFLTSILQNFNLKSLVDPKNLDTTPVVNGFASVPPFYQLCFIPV
measurement_notes: Inhibition of cytochrome P450 (P450-Glo) CYP2C9
Type: biochemical
experimental_setup: human recombinant enzyme, read-out: CYP450 Inhibition (IC50 microM) 2C9
quantity_name: IC50 (µM)

a = Cc1nc2ncnn2c2c1CCN2[C@H](c1ccccc1)C(F)(F)F
b = Cc1nc2ncnn2c2c1CCN2[C@@H](C)c1ccc(F)cc1
// pick larger IC50 from pair: a vs b # respond with the chosen item's label
b

----------
measurement_notes: Metabolism of compounds, rat liver microsomes
Format: in vitro ADME
experimental_setup: rat, pooled liver microsomes; 1 μM compound, 0.3 mg/ml protein, 60 minutes at 37° C.; read-out: Microsomes t1/2 (mins) Rat
Experimental: These were measured by incubating 1 μM test compound with pooled liver microsomes (0.3 mg/ml) protein for 60 minutes at 37° C. Samples were analysed by HPLC-MS/MS (Kuhnz, W. and Gieschen, H. (1998) Drug Metab. Dispos., 26, 1120-1127).
quantity_name: half-life at 1 μM (min)

P = Cc1nc2ncnn2c2c1CCN2[C@H](c1ccccc1)C(F)(F)F
Q = Cc1nc2ncnn2c2c1CCN2[C@H](c1ccc(F)cc1)C(F)(F)F
Returns: the label, P or Q , whose recorded half-life at 1 μM is the lower number. # respond with the chosen item's label
P
(P: 35 min, Q: 60 min)

----------
target_or_test_system: CYP2C19 (Homo sapiens, UniProt P33261)
Sequence (P33261 whole entry): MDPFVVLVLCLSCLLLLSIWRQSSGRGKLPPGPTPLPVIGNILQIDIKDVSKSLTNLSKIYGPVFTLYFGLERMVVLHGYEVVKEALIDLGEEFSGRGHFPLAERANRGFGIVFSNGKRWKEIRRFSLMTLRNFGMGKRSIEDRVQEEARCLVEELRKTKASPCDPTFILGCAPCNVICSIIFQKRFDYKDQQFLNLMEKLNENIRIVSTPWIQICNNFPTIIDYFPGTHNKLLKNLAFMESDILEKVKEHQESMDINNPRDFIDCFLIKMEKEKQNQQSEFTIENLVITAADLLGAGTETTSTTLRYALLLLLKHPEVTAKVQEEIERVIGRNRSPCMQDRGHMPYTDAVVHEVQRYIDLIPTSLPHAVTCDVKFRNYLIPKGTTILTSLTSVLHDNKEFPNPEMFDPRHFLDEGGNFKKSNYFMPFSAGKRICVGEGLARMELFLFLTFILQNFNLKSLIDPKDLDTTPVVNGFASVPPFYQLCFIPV
measurement_notes: Inhibition of cytochrome P450 (P450-Glo) CYP2C19
experimental_setup: human recombinant enzyme, read-out: CYP450 Inhibition (IC50 microM) 2C19
quantity_name: IC50 (µM)

I = Cc1nc2ncnn2c2c1CCN2[C@@H](C)c1ccccc1
II = Cc1nc2ncnn2c2c1CCN2[C@@H](C)c1ccc(F)cc1
Returns: the label, I or II , whose recorded IC50 is the lower number. # respond with the chosen item's label
II

----------
target_or_test_system: CYP3A4 (Homo sapiens, UniProt P08684)
Construct: purchased Promega Corporation
Sequence (P08684 whole entry): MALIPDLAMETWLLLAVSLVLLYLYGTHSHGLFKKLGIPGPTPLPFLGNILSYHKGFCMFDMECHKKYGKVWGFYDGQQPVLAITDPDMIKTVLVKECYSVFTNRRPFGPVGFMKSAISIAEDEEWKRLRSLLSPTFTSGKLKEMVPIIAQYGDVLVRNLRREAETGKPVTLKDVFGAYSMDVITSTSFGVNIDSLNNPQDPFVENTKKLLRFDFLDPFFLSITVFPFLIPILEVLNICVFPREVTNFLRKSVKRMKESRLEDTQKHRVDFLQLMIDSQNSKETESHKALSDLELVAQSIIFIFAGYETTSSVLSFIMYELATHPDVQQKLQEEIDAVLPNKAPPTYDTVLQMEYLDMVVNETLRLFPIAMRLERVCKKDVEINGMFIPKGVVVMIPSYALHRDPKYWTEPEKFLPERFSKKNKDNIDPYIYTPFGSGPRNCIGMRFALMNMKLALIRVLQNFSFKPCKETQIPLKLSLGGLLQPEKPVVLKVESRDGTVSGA
measurement_notes: Inhibition of cytochrome P450 (P450-Glo) CYP3A4
Type: biochemical
experimental_setup: human recombinant enzyme, read-out: CYP450 Inhibition (IC50 microM) 3A4
quantity_name: IC50 (µM)

Below, 2 compounds whose answers are already recorded.
Cc1nc2ncnn2c2c1CCN2[C@@H](C)c1ccc(F)cc1
0.83
Cc1nc2ncnn2c2c1CCN2[C@H](c1ccc(F)cc1)C(F)(F)F
19

P = Cc1nc2ncnn2c2c1CCN2[C@@H](C)c1ccccc1
Q = Cc1nc2ncnn2c2c1CCN2[C@H](c1ccccc1)C(F)(F)F
Returns: the label, P or Q , whose recorded IC50 is the lower number. # respond with the chosen item's label
P
(P: 0.53 µM, Q: 8 µM)

----------
measurement_notes: Cell permeability of compounds (Caco-2 or TC7 monolayers)
Assay type: in vitro ADME, human
experimental_setup: human, Caco-2, apical-to-basolateral, 60 minutes at 37° C., read-out: Cell Perm A-B
Procedure: These were measured using the accepted in vitro intestinal epithelial model using either the human colon adeno-carcinoma cell line Caco-2 or a sub-clone of this cell line, TC7. The apparent permeability coefficient (Papp) was determined in the apical-to-basolateral (A-B) and the B-A directions across cell monolayers cultured on 96-well polycarbonate membrane filters. Compounds were tested at 10 μM with a final DMSO concentration of 1%. […] Samples were analysed by HPLC-MS/MS. […]
quantity_name: Papp A→B at 60 min, 10 μM (×10⁻⁶ cm/s)

Cc1nc2ncnn2c2c1CCN2[C@H](c1ccccc1)C(F)(F)F [Compound 1]
35

a = Cc1nc2ncnn2c2c1CCN2[C@@H](C)c1ccccc1 [Compound 5]
b = Cc1nc2ncnn2c2c1CCN2[C@H](c1ccc(F)cc1)C(F)(F)F [Compound 2]
Returns: the label, a or b , whose recorded Papp A→B at 60 min, 10 μM is the lower number. # respond with the chosen item's label
a
